# target-under-test: Neu5Ac(a2-6)Gal(b1-4)GlcNAc(b1-2)Man(a1-3)[GlcNAc(b1-2)Man(a1-6)]Man(b1-4)GlcNAc(b1-4)GlcNAc
# assay-overview: glycan array binding signal (z-score within array); higher = stronger binding
# settings: glycan notation: IUPAC condensed, linker removed
This is one part of a sample in which the strongest signals are shown more often than they occur.
value-type: glycan array binding signal (z-score)
Answer with a number only.

Aap lectin (Staphylococcus epidermidis) (protein) VNLNYSSPFMSLLSMPADSSSNNTKNTIDIPPTTVKGRDNYDFYGRVDIESNPTDLNATNLTRYNYGQPPGTTTAGAVQFKNQVSFDKDFDFNIRVANNRQSNTTGADGWGFMFSKKDGDDFLKNGGILREKGTPSAAGFRIDTGYYNNDPLDKIQKQAGQGYRGYGTFVKNDSQGNTSKVGSGTPSTDFLNYADNTTNDLDGKFHGQKLNNVNLKYNASNQTFTATYAGKTWTATLSELGLSPTDSYNFLVTSS = -0.88
AidA (Burkholderia cenocepacia) (protein) MSRVTDVLVSFDTETILKKYPNPSKNPAAPTLIDWRYVYMVTNQDNVISGQAGGELDLKAQVGDLIRWRETSLSLGFENQVVFYKFIGNVGNDLISTPTPRVAEASIPVPNTSKPEVPTCQKVANYYWSSECLKVGRVTYHFQFQIIDRNCQSQGCFSWDPFISIHN = -0.443
Wzz (Escherichia coli) (protein) MRTWKFPSVRVMMRVENNNVSGQNHDPEQIDLIDLLVQLWRGKMTIIISVIVAIVLAIGYLAVAKEKWTSTAIITQPDVGQIAGYNNAMNVIYGQAAPKVSDLQETLIGRFSSAFSALAETLDNQEEPEKLTIEPSVKNQQLPLTVSYVGQTAEGAQMKLAQYIQQVDDKVNQELEKDLKDNIALGRKNLQDSLRTQEVVAQEQKDLRIRQIQEALQYANQAQVTKPQIQQTGEDITQDTLFLLGSEALESMIKHEATRPLVFSSNYYQTRQNLLDIDNLDVDKLDIHAYLYVMKPTLPIRRDSPKKAITLILAVLLGGMVGAGIVLGRNALRNYNAK = 1.21

In the following, a different binder is considered.
Which glycan array binding signal (z-score) value is on record for Mnn9-2N3 (Aspergillus fumigatus) (protein) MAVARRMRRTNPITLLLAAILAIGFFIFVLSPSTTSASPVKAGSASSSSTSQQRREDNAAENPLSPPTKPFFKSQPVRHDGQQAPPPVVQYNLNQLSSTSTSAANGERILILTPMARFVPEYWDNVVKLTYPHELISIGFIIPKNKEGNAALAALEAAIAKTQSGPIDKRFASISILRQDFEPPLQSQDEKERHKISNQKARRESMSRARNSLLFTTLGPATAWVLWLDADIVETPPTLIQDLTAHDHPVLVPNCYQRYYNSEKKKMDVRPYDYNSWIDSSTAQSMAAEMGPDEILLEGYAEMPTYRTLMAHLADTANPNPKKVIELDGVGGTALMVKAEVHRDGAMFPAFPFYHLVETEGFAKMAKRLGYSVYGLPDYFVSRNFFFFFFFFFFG ?
-1.47
